# Test system: Staphylococcus aureus
# Test Description: Antibacterial activity against Staphylococcus aureus ATCC 29213 after 24 hrs by broth dilution method
# Assay type: functional
# Settings: ATCC 29213, 24 h
Attribute Measured: log10(MIC) (log10 of the value in µM)
Base-10 log of MIC, unit µM.

[in] Item CCCCOP(=S)(S)OCCCC.NC(=O)c1cccnc1 : provide log10(MIC)
[out] 3.62

[in] Item CC(C)[C@H]1CC[C@H](C)C[C@@H]1OP(=S)(S)O[C@H]1C[C@@H](C)CC[C@@H]1C(C)C.CN1CCC[C@H]1c1cccnc1 : provide log10(MIC)
[out] 1.30

[in] Item CC1(C)[C@H]2CC[C@]1(C)[C@H](OP(=S)(S)O[C@@H]1C[C@@H]3CC[C@@]1(C)C3(C)C)C2.CN1CCC[C@H]1c1cccnc1 : provide log10(MIC)
[out] 1.30

[in] Item C[C@@H]1[C@@H](OP(=S)(S)O[C@H]2C[C@H]3C[C@@H]([C@@H]2C)C3(C)C)C[C@H]2C[C@@H]1C2(C)C : provide log10(MIC)
[out] 2.59

[in] Item C[C@@H]1[C@@H](OP(=S)(S)O[C@H]2C[C@H]3C[C@@H]([C@@H]2C)C3(C)C)C[C@H]2C[C@@H]1C2(C)C.Cc1ncc(CO)c(CO)c1O : provide log10(MIC)
[out] 1.30

[in] Item CC(C)[C@H]1CC[C@H](C)C[C@@H]1OP(=S)(S)O[C@H]1C[C@@H](C)CC[C@@H]1C(C)C.Cc1ncc(CO)c(CO)c1O : provide log10(MIC)
[out] 1.60

[in] Item CC(C)[C@@H]1CC[C@@H](C)C[C@H]1OP(=S)(S)O[C@@H]1C[C@H](C)CC[C@H]1C(C)C : provide log10(MIC)
[out] 2.28

All figures here come from ChEMBL document CHEMBL4371024.
